Ref: PubChem BioAssay

# assay-protocol: viability loss in pontine glioma line – cell-based, SU-DIPG-XXV, MIPE5.0, CellTiter-Glo, qHTS, dose response (AID 1347065);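 also: cells exposed to compound for 48 hours before ATP readout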
# details: CellTiter-Glo ATP luminescence
Inconclusive results are not listed. Calls of active or inactive are those of the source. The limit is not given here; nearly all actives have AC50 up to about 26 µM.
Return exactly one item of yes (active), no (inactive)

Query: Could you check what this test reported for `OC[C@H]1O[C@@H](Oc2cc(O)cc(/C=C/c3ccc(O)cc3)c2)[C@H](O)[C@@H](O)[C@@H]1O` ?
Response: no

Continuing:
Query: Name the outcome recorded for `C[C@H]1COc2c(N3CCN(C)CC3)c(F)cc3c(=O)c(C(=O)O)cn1c23` in the assay.
Response: no

Query: Per the assay record, what outcome was assigned to `COc1ccc([C@@H]2CC(=O)c3c(O)cc(O[C@@H]4O[C@H](CO[C@@H]5O[C@@H](C)[C@H](O)[C@@H](O)[C@H]5O)[C@@H](O)[C@H](O)[C@H]4O)cc3O2)cc1O` ?
Response: no
